Record form. Attribute: protein stability index. Fill in for each entry.
B1: WDR88 (parent)
chain: LLTITKAHSNAISNCCFTFSGHFL

variants of: B1; experiment: protein stability index of a GFP-peptide fusion (GPS, HEK-293T) (PSI 1-6); higher = more stable; settings: c terminus: a fixed tail appended;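 note: lentivirally expressed fusions sorted by FACS into six bins by GFP to DsRed ratio, PSI derived from sequencing read proportions per bin multiplied by bin number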
Answer field: number only, no words.

Sure, the documented protein stability index for A7Y is 3.09

Sure, the documented protein stability index for S9L is 2.95

Sure, the documented protein stability index for C16R is 1.87

Sure, the documented protein stability index for C15Y is 2.88

Sure, the documented protein stability index for A11S is 3.22

Sure, the documented protein stability index for F19P is 1.88

Sure, the documented protein stability index for F17T is 2.66

Sure, the documented protein stability index for L2Y is 2.1

Sure, the documented protein stability index for F23V is 1.99

Sure, the documented protein stability index for F17L is 3.73

Sure, the documented protein stability index for C15I is 3.44
